Test: Phase II single-dose oral pharmacokinetic study of urolithin A in a maltodextrin formulation
Type: in vivo
Settings: both sexes; 8 h after single oral 500 mg Urolithin A in maltodextrin formulation; human, n = 12; plasma; read-out: Urolithin concentrations in blood, Mean
Protocol: A phase II clinical study was carried out to determine the bioavailability of urolithin A when dosed in a formulation containing maltodextrin to human subjects. […] Subjects were administered orally as a single dose with a maltodextrin formulation (Table 2). […] Plasma levels of parent Urolithin A were determined and expressed as pg/ml. […]
propertyName: concentration at 8 h (ng/mL)
// note: answer is a bare numeric in ng/mL

Which measured concentration at 8 h value corresponds to O=c1oc2cc(O)ccc2c2ccc(O)cc12 [Urolithin A] ?
0.775

###

Assay: Phase II single-dose oral pharmacokinetic study of urolithin A in a maltodextrin formulation
Assay type: in vivo
Conditions: both sexes; 1 h after single oral 500 mg Urolithin A in maltodextrin formulation; human, n = 12; plasma; read-out: Urolithin concentrations in blood, Mean
propertyName: concentration at 1 h

Which measured concentration at 1 h value corresponds to `O=c1oc2cc(O)ccc2c2ccc(O)cc12` ?
0.551 ng/mL

###

Assay: Phase II single-dose oral pharmacokinetic study of urolithin A in a maltodextrin formulation
Type: in vivo
Conditions: both sexes; 12 h after single oral 500 mg Urolithin A in maltodextrin formulation; human, n = 12; plasma; read-out: Urolithin concentrations in blood, Mean
propertyName: concentration at 12 h (ng/mL)
// note: answer is a bare numeric in ng/mL

Which measured concentration at 12 h value corresponds to `O=c1oc2cc(O)ccc2c2ccc(O)cc12` ?
0.72

###

Assay: Phase II single-dose oral pharmacokinetic study of urolithin A in a maltodextrin formulation
Format: in vivo
Details: both sexes; 4 h after single oral 500 mg Urolithin A in maltodextrin formulation; human, n = 12; plasma; read-out: Urolithin concentrations in blood, Mean
propertyName: concentration at 4 h
Please make sure the unit comes right after the number.

Which measured concentration at 4 h value corresponds to `O=c1oc2cc(O)ccc2c2ccc(O)cc12` ?
1.07 ng/mL

###

Test: Phase II single-dose oral pharmacokinetic study of urolithin A in a maltodextrin formulation
Type: in vivo
Conditions: both sexes; 6 h after single oral 500 mg Urolithin A in maltodextrin formulation; human, n = 12; plasma; read-out: Urolithin concentrations in blood, Mean
Protocol: A phase II clinical study was carried out to determine the bioavailability of urolithin A when dosed in a formulation containing maltodextrin to human subjects. […] Subjects were administered orally as a single dose with a maltodextrin formulation (Table 2). […] Plasma levels of parent Urolithin A were determined and expressed as pg/ml. […]
propertyName: concentration at 6 h

Which measured concentration at 6 h value corresponds to `O=c1oc2cc(O)ccc2c2ccc(O)cc12` ?
1.4 ng/mL

###

Assay: Phase II single-dose oral pharmacokinetic study of urolithin A in a maltodextrin formulation
Format: in vivo
Conditions: both sexes; 72 h after single oral 500 mg Urolithin A in maltodextrin formulation; human, n = 12; plasma; read-out: Urolithin concentrations in blood, Mean
propertyName: concentration at 72 h

Which measured concentration at 72 h value corresponds to `O=c1oc2cc(O)ccc2c2ccc(O)cc12` ?
0.167 ng/mL

From: patent US20250049750A1
